assay: Solubility test of the crystal form in different solvents; assay type: physicochemical; conditions: 25 °C, simulated gastric fluid, thermodynamic from solid; 0.1N HCl, 25±2° C.; read-out: Solubility classification
readout_kind: solubility at 30 min

stdin: Any idea what its solubility at 30 min is? The compound is Cc1cnn2c1-c1cc(C(=O)N[C@H](CN)Cc3cccc(F)c3)sc1CCC2.O=C(O)/C=C\C(=O)O
stdout: 100 to 1000 µg/mL

###

experiment: Solubility test of the crystal form in different solvents; assay type: physicochemical; conditions: 25 °C, organic solvent or mixture, thermodynamic from solid; Methanol, 25±2° C.; read-out: Solubility classification
readout_kind: solubility at 30 min

stdin: Any idea what its solubility at 30 min is? The compound is Cc1cnn2c1-c1cc(C(=O)N[C@H](CN)Cc3cccc(F)c3)sc1CCC2.O=C(O)/C=C\C(=O)O
stdout: 1000 to 10000 µg/mL
